# credit: PubChem BioAssay AID1845200

Test system: ASPS-1 complex tumor spheroids, viability
Assay details: Anticancer human tumor ASPS-1 cell line growth inhibition;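 note: spheroids exposed to agents for 7 days after 3 days of growth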
Condition description: curve of first compound; second compound 0.00949 µM
pIC50: −log10 of the molar value.
Readout: pIC50

Input line: What value of pIC50 has been reported for the following compound? Cc1sc2c(c1C)C(c1ccc(Cl)cc1)=NC(CC(=O)Nc1ccc(O)cc1)c1nnc(C)n1-2 (stereo not given) + CC[C@@]1(O)C(=O)OCc2c1cc1n(c2=O)Cc2cc3c(CN(C)C)c(O)ccc3nc2-1
Output line: < 5.52

Input line: COc1cc(C)[nH]c(=O)c1CN1CCc2c(Cl)cc(C(OC)C3COC3)c(Cl)c2C1=O (stereo not given) + CC[C@@]1(O)C(=O)OCc2c1cc1n(c2=O)Cc2cc3c(CN(C)C)c(O)ccc3nc2-1 ?
Output line: < 5.00

Input line: [2H]c1nc(C)nc([2H])c1-c1cc(NC[C@@H](C)c2cccc3c(C(=O)NC)ccnc23)ncn1 + CC[C@@]1(O)C(=O)OCc2c1cc1n(c2=O)Cc2cc3c(CN(C)C)c(O)ccc3nc2-1 ?
Output line: < 5.00

Input line: CC1COCCN1c1cc(-c2ccnn2C)c2ccnc(-c3ccn[nH]3)c2n1 (stereo not given) + CC[C@@]1(O)C(=O)OCc2c1cc1n(c2=O)Cc2cc3c(CN(C)C)c(O)ccc3nc2-1 ?
Output line: 7.22

Input line: Cn1ncnc1[C@H]1c2n[nH]c(=O)c3cc(F)cc(c23)N[C@@H]1c1ccc(F)cc1 + CC[C@@]1(O)C(=O)OCc2c1cc1n(c2=O)Cc2cc3c(CN(C)C)c(O)ccc3nc2-1 ?
Output line: < 5.52

---

System: ASPS-1 complex tumor spheroids, viability
Assay details: Anticancer human tumor ASPS-1 cell line growth inhibition;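 note: spheroids exposed to agents for 7 days after 3 days of growth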;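 for viability, T/C: 100% = DMSO vehicle treated spheroids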
Condition description: second compound 0.003 µM; first compound 0.0949 µM; stronger effect = lower value
Assignment: determine reported viability, T/C for the given molecules.
Write it as a number; the unit % goes unstated.

Input line: What value of viability, T/C has been reported for the following molecule? Cc1sc2c(c1C)C(c1ccc(Cl)cc1)=NC(CC(=O)Nc1ccc(O)cc1)c1nnc(C)n1-2 (stereo not drawn) + CC[C@@]1(O)C(=O)OCc2c1cc1n(c2=O)Cc2cc3c(CN(C)C)c(O)ccc3nc2-1
Output line: 106

Input line: Cc1sc2c(c1C)C(c1ccc(Cl)cc1)=NC(CC(=O)Nc1ccc(O)cc1)c1nnc(C)n1-2 (stereo not drawn) + COc1cc2c(cc1O)CCNC21CSC2c3c(OC(C)=O)c(C)c4c(c3C(COC1=O)N1C(O)C3Cc5cc(C)c(OC)c(O)c5C(C21)N3C)OCO4 ?
Output line: 29.2

Input line: CNCc1ccc(-c2cc(-c3nc(-c4ccc(S(=O)(=O)C(C)C)cc4)cnc3N)on2)cc1 + CC[C@@]1(O)C(=O)OCc2c1cc1n(c2=O)Cc2cc3c(CN(C)C)c(O)ccc3nc2-1 ?
Output line: 98.8

---

Tested on: ASPS-1 complex tumor spheroids, viability
Assay details: Anticancer human tumor ASPS-1 cell line growth inhibition;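 note: spheroids exposed to agents for 7 days after 3 days of growth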;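 for viability, T/C: 100% = DMSO vehicle treated spheroids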
Condition description: second compound 31.6 µM; first compound 1 µM; stronger effect = lower value
Sorting guide: entries reporting viability, T/C beneath 80% go in the Satisfied pile, the rest go in the Not satisfied pile.

Input line: API: query returns whether the compound falls strictly under 80% in viability, T/C. Query: CC1COCCN1c1cc(-c2ccnn2C)c2ccnc(-c3ccn[nH]3)c2n1 (stereo unspecified) + Cn1nnc2c(C(N)=O)ncn2c1=O
Output line: Satisfied

Input line: CC(C)n1c(=O)n(C)c2cnc3cc(F)c(-c4ccc(OCCCN5CCCCC5)nc4)cc3c21 + Cn1nnc2c(C(N)=O)ncn2c1=O ?
Output line: Satisfied

Input line: COc1ccc([C@@H](O)c2cc(-c3ncnc4cc(N5CCOCC5)ccc34)c(F)cc2Cl)nn1 + Cn1nnc2c(C(N)=O)ncn2c1=O ?
Output line: Satisfied

Input line: Cc1cc(C)c(CNC(=O)c2cc(-c3ccc(CN4CCOCC4)cc3)cc3c2cnn3C2CCCC2)c(=O)[nH]1 + Cn1nnc2c(C(N)=O)ncn2c1=O ?
Output line: Not satisfied

Input line: COc1cc(C)[nH]c(=O)c1CN1CCc2c(Cl)cc(C(OC)C3COC3)c(Cl)c2C1=O (stereo unspecified) + Cn1nnc2c(C(N)=O)ncn2c1=O ?
Output line: Not satisfied
